# Test system: H1N1 A/PR/8/34 (PR8) virus
# experiment.description: microbe, parasite or virus in culture
# Assay type: cell-based, influenza A virus
# experimental.setup: Influenza A virus; zanamivir alone, PR8, MDCK cells; read-out: EC50
endpoint.name: pEC50
Quick note: pEC50 values are minus log10 of concentrations in mol/L.

So what's the measured pEC50 for this one? CC(=O)N[C@H]1[C@H]([C@H](O)[C@H](O)CO)OC(C(=O)O)=C[C@@H]1N=C(N)N 6.00

====

# System: MDCK cells
# experiment.description: Toxicity / cell viability by MTT in uninfected MDCK cells
# Format: cell-based, canine
# experimental.setup: MDCK cells, MTT
endpoint.name: Toxicity LD50 (MTT)

- compound: "CC(=O)Oc1ccccc1C(=O)Nc1nc([S+](C)[O-])cs1 (centres unmarked) [Compound 29]"
  Toxicity LD50 (MTT): ">50 µg/mL"
- compound: "CCC(=O)Oc1ccccc1C(=O)Nc1ncc([N+](=O)[O-])s1 [Compound 16]"
  Toxicity LD50 (MTT): "20 µg/mL"
- compound: "CC(=O)Oc1cccc(C(=O)Nc2nc(S(C)(=O)=O)cs2)c1 [Compound 31]"
  Toxicity LD50 (MTT): ">50 µg/mL"
- compound: "CS(=O)(=O)c1cnc(NC(=O)c2ccccc2O)s1 [Compound 53]"
  Toxicity LD50 (MTT): ">50 µg/mL"

So what's the measured Toxicity LD50 (MTT) for this one? O=C(Nc1ncc([N+](=O)[O-])s1)c1ccccc1O [Compound 2, tizoxanide] >50 µg/mL
